- Test system: MDA-MB-468 breast
- procedureSummary: NCI tumour cell line growth inhibition, 48 h
I would appreciate it if you labelled entries t when TGI is 7 µM or higher, otherwise f.

Some solved entries appear below for comparison.
{"moleculeSmiles": "COc1ccc(CCN2C(=O)/C(=C/c3csc(C#N)n3)SC2=S)cc1", "testedSystem": "MDA-MB-468 breast", "labelClass": "t"}
{"moleculeSmiles": "CN1CCN(Cc2ccc(NC(=O)c3cncc(C#Cc4cnc(N)c5ccc(F)cc45)c3)cc2C(F)(F)F)CC1", "testedSystem": "MDA-MB-468 breast", "labelClass": "f"}

IN: Does COc1cc(-c2cnn(C)c2)ccc1Nc1ncc2ccnc(N[C@@H](C)C(C)(C)C)c2n1 have a reported TGI of at least 7 µM?
OUT: t

* * *

- Test system: MDA-MB-468 breast
- procedureSummary: NCI tumour cell line growth inhibition, 48 h; in the data active means GI50 below about 0.43 µM; inactive means the rest
// allowed return values: active, inactive

IN: Lab log entry: C=CCn1c(C)nc2cc(Nc3nc(Nc4ccc5nc(C)n(CC=C)c5c4)c4ccccc4n3)ccc21 — outcome as called in the assay?
OUT: active

* * *

For each of the compounds below, state its TGI.
- System: MDA-MB-468 breast
- procedureSummary: NCI tumour cell line growth inhibition, 48 h
Answers are plain numbers, in µM.

Look over these answered cases.
{"moleculeSmiles": "COc1c/c(=C2/C=c3ccccc3=N2)[nH]/c1=C/c1[nH]c(C)cc1C", "TGI, µM": 1.94}
{"moleculeSmiles": "CC1(C)C=CC[C@]2(C)[C@H]3CC[C@@H]4[C@H]5[C@H](C(=O)/C=C/c6cccnc6)CC[C@]5(CO)CC[C@@]4(C)[C@]3(C)CC[C@@H]12", "TGI, µM": 2.88}
{"moleculeSmiles": "O=C(Nc1cccc(C(F)(F)F)c1)c1cc(-c2ccc(F)cc2F)ccc1O", "TGI, µM": 6.84}
{"moleculeSmiles": "O=C(Nc1ccc(Cl)cc1)Nc1ccc(Cl)c(Cl)c1", "TGI, µM": 11.3}
{"moleculeSmiles": "C#C[C@]1(O)CC[C@H]2[C@@H]3CC=C4c5sc(Nc6cc(Cl)ccn6)nc5CC[C@]4(C)[C@H]3CC[C@@]21C", "TGI, µM": 6.61}

IN: What TGI value was documented for this compound, COC(=O)CCC/C=C\C[C@H]1C=CC(=O)/C1=C/C[C@@H](O)CCc1cccc(C(F)(F)F)c1 ?
OUT: 5.23

* * *

- Tested on: MDA-MB-468 breast
- procedureSummary: NCI tumour cell line growth inhibition, 48 h; in the data active = GI50 below about 0.43 µM; inactive = the rest
// allowed return values: yes (1) for active, no (0) for inactive

Some solved entries appear below for comparison.
{"compound": "CCOC(=O)[C@@H](C)C[C@H](Cc1ccccc1)NC(=O)c1csc([C@@H](C[C@H](C(C)C)N(C)C(=O)[C@@H](NC(=O)[C@H]2C[C@H](O[Si](C)(C)C(C)(C)C)CCN2C)C(C)C)OC(C)=O)n1", "labelClass": "yes (1)"}
{"compound": "Nc1c(C(=O)c2ccccc2)sc2nc(-c3cccs3)ccc12", "labelClass": "yes (1)"}
{"compound": "Cc1cc(/C=C2\\SC(=Nc3ccccc3)N(C3CCCC3)C2=O)c(C)n1-c1ccc(Cl)cc1", "labelClass": "no (0)"}
{"compound": "C=CC(=O)N1CCCC(n2nc(-c3ccc(Oc4ccccc4)cc3)c3c(N)ncnc32)C1 (stereo unspecified)", "labelClass": "yes (1)"}
{"compound": "O=[N+]([O-])c1ccc2[nH]cc(-c3c4ccsc4cc4[nH]c5ccc([N+](=O)[O-])cc5c34)c2c1", "labelClass": "no (0)"}

We now examine a further compound.
IN: Lab log entry: CC[N+](CC)=c1ccc2nc3c(cc(N)c4ccccc43)oc-2c1 — outcome as called in the assay?
OUT: yes (1)

The origin of these recorded values is PubChem BioAssay (NCI).
